Biological target: human DLL3 endogenously expressed on SHP77 and NCI-H82 cells (human) (UniProt Q9NYJ7)
Sequence (Q9NYJ7 27-618): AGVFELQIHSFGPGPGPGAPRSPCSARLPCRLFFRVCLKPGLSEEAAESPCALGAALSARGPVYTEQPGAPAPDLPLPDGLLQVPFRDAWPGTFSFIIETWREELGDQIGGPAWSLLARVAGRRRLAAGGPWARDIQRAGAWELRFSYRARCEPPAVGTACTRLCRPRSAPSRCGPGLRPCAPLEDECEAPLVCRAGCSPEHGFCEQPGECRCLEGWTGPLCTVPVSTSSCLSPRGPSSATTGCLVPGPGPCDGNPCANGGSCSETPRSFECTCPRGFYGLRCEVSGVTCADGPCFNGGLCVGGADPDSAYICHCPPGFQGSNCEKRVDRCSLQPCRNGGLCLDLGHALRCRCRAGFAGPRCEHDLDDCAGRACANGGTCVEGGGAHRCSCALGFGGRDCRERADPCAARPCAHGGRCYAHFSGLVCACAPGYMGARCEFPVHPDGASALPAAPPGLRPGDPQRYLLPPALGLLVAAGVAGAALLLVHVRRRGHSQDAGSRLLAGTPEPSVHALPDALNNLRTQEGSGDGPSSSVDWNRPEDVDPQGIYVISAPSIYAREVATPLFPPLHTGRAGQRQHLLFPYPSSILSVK
Test: FACS SHP77 cells, 0.00128 nM
Entries and their MFI
# value in MFI; strip the unit string

The following binders have reported results that may help.
binder	MFI / MFI
mab008 scFv-hFc (Fc fusion, not shown: small tags and cut ends; a dimerising Fc or GST) scFv (part 1 of 2): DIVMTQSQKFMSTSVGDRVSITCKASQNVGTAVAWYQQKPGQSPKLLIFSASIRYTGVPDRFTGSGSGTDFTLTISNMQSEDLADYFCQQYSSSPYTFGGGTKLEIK scFv (part 2 of 2): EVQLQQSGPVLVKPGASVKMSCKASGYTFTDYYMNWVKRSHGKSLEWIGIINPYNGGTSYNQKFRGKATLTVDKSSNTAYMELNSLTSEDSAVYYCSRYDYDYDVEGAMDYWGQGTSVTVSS	82
mab011 scFv-hFc (Fc fusion, not shown: small tags and cut ends; a dimerising Fc or GST) scFv (part 1 of 2): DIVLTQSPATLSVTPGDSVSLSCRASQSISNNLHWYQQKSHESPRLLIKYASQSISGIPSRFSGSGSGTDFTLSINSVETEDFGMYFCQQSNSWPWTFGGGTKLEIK scFv (part 2 of 2): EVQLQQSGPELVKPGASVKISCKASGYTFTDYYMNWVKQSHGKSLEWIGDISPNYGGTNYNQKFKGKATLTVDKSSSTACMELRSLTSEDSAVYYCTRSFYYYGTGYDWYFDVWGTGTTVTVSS	90

### Prompt Report measured MFI; entry is mab010 scFv-hFc (Fc fusion, not shown: small tags and cut ends; a dimerising Fc or GST) scFv (part 1 of 2): DIQMTQSPASLSVSVGETVTITCRASENINSNLAWYQQKQGKSPQLLVYAATNLADGVPSRFSGSGSGTQFSLKISGLQSEDFGSYYCQHFWGLPWTFGGGTKLEIR scFv (part 2 of 2): QVQLQQSGAELARPGASMKLSCKASGYTFTSYGISWVKQITGQGLEWIGEIFPRSGNTYDNENFRGKATLTADKSSSTAYLEVRSLTSEDSAVYFCARTTVFAPYYFDYWGQGTTLTVSS
### Response 113
